# Assay comment: qHTS assay to identify small molecule agonists of the AP-1 signaling pathway - cell viability counter screen (AID 1159525); further: nearly all actives have a fitted effect of over 55% in size
# Assay conditions: ME-180 (cervical carcinoma) AP-1-bla cells viability, ATP luminescence, 5 h; series mostly up to 76.8 µM
Records with an inconclusive call do not appear. Calls of active or inactive are those of the source. The call rests on the fitted dose curve.
Measurement label: viability change, negative = cytotoxic

{"Compound": "CCC(C)[O-].CCC(C)[O-].CCOC(=O)/C=C(/C)[O-].[Al+3]", "Measurement label": "viability change, negative = cytotoxic", "Data value": "inactive"}
{"Compound": "Fc1ccc(C(c2ccc(F)cc2)N2CCNCC2)cc1", "Measurement label": "viability change, negative = cytotoxic", "Data value": "inactive"}
{"Compound": "COc1ccc2c(c1)c(CC(=O)OC/C=C(\\C)CC/C=C(\\C)CCC=C(C)C)c(C)n2C(=O)c1ccc(Cl)cc1", "Measurement label": "viability change, negative = cytotoxic", "Data value": "inactive"}
{"Compound": "CCc1ccc(Br)cc1", "Measurement label": "viability change, negative = cytotoxic", "Data value": "inactive"}
{"Compound": "CN1CCC[C@@H]1CCO[C@](C)(c1ccccc1)c1ccc(Cl)cc1", "Measurement label": "viability change, negative = cytotoxic", "Data value": "inactive"}
{"Compound": "C/C=C/C=C/COC(=O)C(C)C", "Measurement label": "viability change, negative = cytotoxic", "Data value": "inactive"}
{"Compound": "c1ccc(SSc2ccccc2)cc1", "Measurement label": "viability change, negative = cytotoxic", "Data value": "inactive"}
{"Compound": "Clc1sc(Cl)c(Cl)c1Cl", "Measurement label": "viability change, negative = cytotoxic", "Data value": "inactive"}
{"Compound": "Cc1c(F)c(N2CCNC(C)C2)cc2c1c(=O)c(C(=O)O)cn2C1CC1 (configuration not stated)", "Measurement label": "viability change, negative = cytotoxic", "Data value": "inactive"}
{"Compound": "CCCCCc1ccc(Cl)cc1", "Measurement label": "viability change, negative = cytotoxic", "Data value": "inactive"}
{"Compound": "COC(=O)Nc1nc2ccc(C(=O)c3ccccc3)cc2[nH]1", "Measurement label": "viability change, negative = cytotoxic", "Data value": "inactive"}
{"Compound": "CCCCCCCC/C=C\\CCCCCCCCN", "Measurement label": "viability change, negative = cytotoxic", "Data value": "inactive"}
{"Compound": "CCOC(=O)Cn1cccc1-c1nc(-c2ccc(OC)cc2)c(-c2ccc(OC)cc2)s1", "Measurement label": "viability change, negative = cytotoxic", "Data value": "inactive"}
{"Compound": "CCCC(=O)OCCc1ccccc1", "Measurement label": "viability change, negative = cytotoxic", "Data value": "inactive"}
{"Compound": "O=C(O)c1cccc(C(F)(F)F)c1", "Measurement label": "viability change, negative = cytotoxic", "Data value": "inactive"}
{"Compound": "C1CCC(SSC2CCCCC2)CC1", "Measurement label": "viability change, negative = cytotoxic", "Data value": "inactive"}
{"Compound": "O=C1OC2(c3ccc(O)cc3Oc3cc(O)ccc32)c2ccc(N=C=S)cc21", "Measurement label": "viability change, negative = cytotoxic", "Data value": "inactive"}
{"Compound": "O=C(/C=C/c1ccccc1)OC/C=C/c1ccccc1", "Measurement label": "viability change, negative = cytotoxic", "Data value": "inactive"}
{"Compound": "CCCCOC(=O)CO", "Measurement label": "viability change, negative = cytotoxic", "Data value": "inactive"}
{"Compound": "C[C@H]1NCc2cc(-c3ccc4c(=O)c(C(=O)O)cn(C5CC5)c4c3OC(F)F)ccc21", "Measurement label": "viability change, negative = cytotoxic", "Data value": "1.98% [at 15.8 µM] (inactive)"}
{"Compound": "CCC(CC)C(C)CCOC(C)=O (configuration not stated)", "Measurement label": "viability change, negative = cytotoxic", "Data value": "inactive"}
{"Compound": "CCCCC(CC)CN1CN(CC(CC)CCCC)CC(C)(N)C1 (configuration not stated)", "Measurement label": "viability change, negative = cytotoxic", "Data value": "inactive"}
{"Compound": "Cc1ccc(O)c(O)c1", "Measurement label": "viability change, negative = cytotoxic", "Data value": "inactive"}
{"Compound": "CC(C)NC[C@@H](O)COc1ccc(CC(N)=O)cc1", "Measurement label": "viability change, negative = cytotoxic", "Data value": "inactive"}
{"Compound": "CCC(C)n1ncn(-c2ccc(N3CCN(c4ccc(OC[C@H]5CO[C@](Cn6cncn6)(c6ccc(Cl)cc6Cl)O5)cc4)CC3)cc2)c1=O (some centres not stated)", "Measurement label": "viability change, negative = cytotoxic", "Data value": "inactive"}
{"Compound": "CCCCOC(=O)CC", "Measurement label": "viability change, negative = cytotoxic", "Data value": "inactive"}
{"Compound": "CNC(=O)c1ccccc1Sc1ccc2c(/C=C/c3ccccn3)n[nH]c2c1", "Measurement label": "viability change, negative = cytotoxic", "Data value": "inactive"}

---

# Target entity: Nuclear receptor subfamily 1 group I member 2 (Homo sapiens) (UniProt O75469)
# Sequence (O75469 whole entry, looked up): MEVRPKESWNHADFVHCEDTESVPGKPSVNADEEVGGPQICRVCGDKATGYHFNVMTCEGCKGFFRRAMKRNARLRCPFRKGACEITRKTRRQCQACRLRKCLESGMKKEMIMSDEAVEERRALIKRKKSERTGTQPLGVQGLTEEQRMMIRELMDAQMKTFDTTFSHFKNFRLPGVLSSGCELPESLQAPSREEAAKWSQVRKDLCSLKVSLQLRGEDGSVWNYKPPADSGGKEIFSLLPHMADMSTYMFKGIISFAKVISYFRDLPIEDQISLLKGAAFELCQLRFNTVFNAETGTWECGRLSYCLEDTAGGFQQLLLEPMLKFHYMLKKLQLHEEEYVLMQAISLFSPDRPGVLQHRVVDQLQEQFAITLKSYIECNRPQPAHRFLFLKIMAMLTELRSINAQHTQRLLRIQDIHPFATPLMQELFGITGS
# Assay comment: Human pregnane X receptor (PXR) small molecule agonists, qHTS assay (AID 1346982); further: nearly all actives have a fitted effect of over 35% in size; on activation: on the % scale 0 is the no-effect control and ±100 the full control effect
# Assay conditions: PXR-Luc HepG2, CYP3A4 luciferase reporter, 24 h; series mostly up to 92.4 µM
Inconclusive results are not listed. The source made the active and inactive calls. The call rests on the fitted dose curve; in most records, active means well fitted activation curve with a large enough effect in the repeat runs; inconclusive means weak or mixed curves; inactive means no such curve, though single readings can be large or run the other way.
Outcome codes: active, inactive

{"Molecule": "C=CC(C)(CCC=C(C)C)OC=O (configuration not stated)", "Label value": "inactive"}
{"Molecule": "O=C(c1ccc(O)c(O)c1)c1ccc(O)cc1O", "Label value": "active"}
{"Molecule": "COC(=O)Nc1nc2ccc(C(=O)c3ccccc3)cc2[nH]1", "Label value": "active"}
{"Molecule": "Clc1sc(Cl)c(Cl)c1Cl", "Label value": "inactive"}
{"Molecule": "O=C(O)c1cc(-c2ccc(F)cc2F)ccc1O", "Label value": "inactive"}
{"Molecule": "Cc1nc2n(c(=O)c1CCN1CCC(c3noc4cc(F)ccc34)CC1)CCCC2", "Label value": "inactive"}
{"Molecule": "OCCN1CCN(CCCN2c3ccccc3Sc3ccc(C(F)(F)F)cc32)CC1", "Label value": "inactive"}

---

# Assay comment: qHTS assay for small molecule agonists of the antioxidant response element (ARE) signaling pathway - cell viability counter screen (AID 743203); further: nearly all actives have a fitted effect of over 55% in size
# Assay conditions: ARE-bla HepG2 viability, CellTiter-Glo luminescence, 16 h; series mostly up to 73.3 µM
Records with an inconclusive call do not appear. Activity calls are given as the source filed them. Calls follow the shape of the full dose curve.
Outcome codes: YES (active), NO (inactive)

{"Compound": "O=[N+]([O-])c1ccc(F)c(Cl)c1", "Label value": "NO"}
{"Compound": "O=C1CCc2ccc(OCCCCN3CCN(c4cccc(Cl)c4Cl)CC3)cc2N1", "Label value": "YES"}
{"Compound": "CCCCCCCC", "Label value": "NO"}
{"Compound": "Sc1nc2ccccc2s1", "Label value": "NO"}
{"Compound": "Fc1ccc(C(c2ccc(F)cc2)N2CCNCC2)cc1", "Label value": "YES"}
{"Compound": "CC(C)=CCNc1ncnc2c1ncn2[C@@H]1O[C@H](CO)[C@@H](O)[C@H]1O", "Label value": "YES"}
{"Compound": "CC(=O)Oc1cc2c(s1)CCN(C(C(=O)C1CC1)c1ccccc1F)C2 (stereo not drawn)", "Label value": "NO"}
{"Compound": "NC(=O)c1cccc([N+](=O)[O-])c1", "Label value": "NO"}
{"Compound": "NC(=S)NC(N)=S", "Label value": "NO"}
{"Compound": "O=C(O)c1cc(N=Nc2ccc([N+](=O)[O-])cc2)ccc1O", "Label value": "NO"}
{"Compound": "CCC(COC(=O)CCS)(COC(=O)CCS)COC(=O)CCS", "Label value": "NO"}
{"Compound": "COc1cc(C)ccc1O", "Label value": "NO"}
{"Compound": "Cc1ccc(O)c(O)c1", "Label value": "NO"}

---

# Assay comment: qHTS assay to identify small molecule antagonists of the retinoid acid receptor (RAR) signaling pathway - cell viability counter screen (AID 1159551); further: on the % scale 0 is the no-effect control and ±100 the full control effect; nearly all actives have a fitted effect of over 35% in size
# Assay conditions: C3RL4 cells viability, ATP luminescence (CellTiter-Glo), 6 h; series mostly up to 92.4 µM
# Protocol: U.S. Tox21 Program National Center for Advancing Translational Sciences [NCATS] NIH Chemical Genomics Center [NCGC] U.S. Environmental Protection Agency [EPA] National Institutes of Environmental Health Sciences [NIEHS] National Toxicology Program [NTP] U.S. Food and Drug Administration [FDA] […] Also cytotoxicity was assessed by determining the viability of cells based on the quantitation of ATP. […]
Inconclusive results are not listed. Active and inactive are the calls of the source. Calls come from the whole dose curve; as a rule, active = well fitted cell-killing curve with a large enough effect in the repeat runs; inconclusive = weak or mixed curves, or effect the other way; inactive = flat fitted curve, though single readings scatter.
Measurement label: activity change, negative = cytotoxicity

{"Compound": "CCCC1CCC(=O)CC1", "Data value": "inactive"}
{"Compound": "OC[C@H]1O[C@H](O[C@H]2O[C@H](CO)[C@@H](O)[C@H](O)[C@H]2O)[C@H](O)[C@@H](O)[C@@H]1O", "Data value": "inactive"}
{"Compound": "CC(C)(C)CC(C)(C)c1ccc(Nc2ccc(C(C)(C)CC(C)(C)C)cc2)cc1", "Data value": "0.648% [at 8.39 µM] (inactive)"}
{"Compound": "Clc1nnc(Cl)c2ccccc12", "Data value": "inactive"}
{"Compound": "Nc1nc(N)nc(-c2cc(Cl)ccc2Cl)n1", "Data value": "inactive"}
{"Compound": "Cc1cccc(C(=O)O)c1O", "Data value": "inactive"}
{"Compound": "CCCCNS(=O)(=O)c1ccc(C)cc1", "Data value": "inactive"}
{"Compound": "C[C@@H](O)[C@H](N)C(=O)O", "Data value": "-1.86% [at 19 µM] (inactive)"}
{"Compound": "Cc1c(N)cccc1C(F)(F)F", "Data value": "inactive"}
{"Compound": "CCC(=O)OC(=O)CC", "Data value": "inactive"}
{"Compound": "COc1cc2nc(N3CCN(C(=O)c4ccco4)CC3)nc(N)c2cc1OC", "Data value": "-9.47% [at 19 µM] (inactive)"}
{"Compound": "COC1=C(OC)C(=O)C(CCCCCCCCCCO)=C(C)C1=O", "Data value": "inactive"}
{"Compound": "CCC(=O)C(=O)CC", "Data value": "inactive"}
{"Compound": "CCCC[P+](C)(CCCC)CCCC", "Data value": "inactive"}
{"Compound": "Fc1ccc(C(c2ccc(F)cc2)N2CCNCC2)cc1", "Data value": "inactive"}
{"Compound": "O=C1CCc2cc(OCCCCc3nnnn3C3CCCCC3)ccc2N1", "Data value": "inactive"}
{"Compound": "O=C(/C=C/c1ccc(O)c(O)c1)O[C@@H](C(=O)O)[C@@H](OC(=O)/C=C/c1ccc(O)c(O)c1)C(=O)O", "Data value": "inactive"}
{"Compound": "Cc1c(C)c2c(c(C)c1OC(=O)c1cccnc1)CC[C@@](C)(CCC[C@H](C)CCC[C@H](C)CCCC(C)C)O2", "Data value": "inactive"}
{"Compound": "Cc1c(C)c([N+](=O)[O-])c(C(C)(C)C)c([N+](=O)[O-])c1C", "Data value": "inactive"}
{"Compound": "O=C(O)O", "Data value": "2.76% [at 8.39 µM] (inactive)"}
{"Compound": "CCc1cccc(CC)c1NC(=O)CN(CC(=O)O)CC(=O)O", "Data value": "inactive"}
{"Compound": "CCOC(=O)NNc1ccc(N(CC)CC(C)O)nn1 (stereo not given)", "Data value": "inactive"}
{"Compound": "CCCCCC/C=C\\CCCCCCCC(=O)O", "Data value": "inactive"}
{"Compound": "C#C[C@]1(OC(C)=O)CC[C@H]2[C@@H]3CCC4=C[C@@H](OC(C)=O)CC[C@@H]4[C@H]3CC[C@@]21C", "Data value": "inactive"}
{"Compound": "O=c1oc2cc(O)ccc2c2oc3cc(O)ccc3c12", "Data value": "inactive"}
